Biological target: IC-GPCR2 (Homo sapiens, UniProt Q8TDV5)
Construct: expressed in transfected cells
Sequence (Q8TDV5 1-335 S309L): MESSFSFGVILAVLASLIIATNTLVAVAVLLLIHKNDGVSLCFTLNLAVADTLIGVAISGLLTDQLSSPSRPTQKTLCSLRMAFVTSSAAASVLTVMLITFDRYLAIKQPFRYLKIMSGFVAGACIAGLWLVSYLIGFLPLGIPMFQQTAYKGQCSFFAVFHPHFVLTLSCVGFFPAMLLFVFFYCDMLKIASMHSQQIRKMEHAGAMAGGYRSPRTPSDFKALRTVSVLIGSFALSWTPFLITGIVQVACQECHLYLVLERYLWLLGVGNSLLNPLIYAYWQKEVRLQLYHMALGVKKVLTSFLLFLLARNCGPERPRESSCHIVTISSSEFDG
Experiment: Stimulation of cAMP in CHO cell line stably expressing IC-GPCR2 (HTRF cAMP dynamic kit)
Type: cell-based
Settings: 3 μM compound; relative to maximal activity of 5-Ethyl-2-{4-[4-(4-tetrazol-1-yl-phenoxymethyl)-thiazol-2-yl]-piperidin-1-yl}-pyrimidine (=100%); IC-GPCR2 stably expressing CHO cells, 30 minutes
metric: % activity at 3 μM (%)

1: CS(=O)(=O)c1ccc(OCc2cnn(C3CCN(c4ncc(C(F)(F)F)cn4)CC3)n2)c(F)c1 [Example 14]
2: c1cc(-n2cnnn2)ncc1OCc1cnn(C2CCN(c3nc(C4CC4)no3)CC2)n1 [Example 29]
3: CCOC(=O)c1cnc(N2CCC(n3ncc(COc4ccc(-n5cnnn5)nc4)n3)CC2)s1 [Example 81]
# rank above entries by % activity at 3 μM (max first, min last) Response field: labels, in requested order.
1, 2, 3

Origin of values: patent US8846675B2
